Measured values drawn from ChEMBL document CHEMBL1201862 for this set.

- System: SK-MEL-5
- TEST SUMMARY: NCI tumour cell line growth inhibition, 48 h
Active and inactive are the calls of the source. No stated cut-off is given here; in the data, active = GI50 up to about 1.1 µM and inactive = higher.
Returns: one label drawn from yes = active, no = inactive

Here's what some known entries look like.
# COMPOUND, TARGET OR TEST SYSTEM, LABEL
rows = [
    ("CSC1(C(=O)O)C2CCC3C2CCC31 (centres undefined)", "SK-MEL-5", "no"),
    ("CCCCCCCCCCCCO[PH](=O)OCCCCCCCCCCCC", "SK-MEL-5", "no"),
    ("CCOC(=O)C(CC/C=C\\c1ccccc1)N1CCC[C@H]1C(=O)OC (some centres undefined)", "SK-MEL-5", "no"),
    ("Nc1cccc2nsnc12", "SK-MEL-5", "no"),
]

**Q:** Per the assay record, what outcome was assigned to C=CCOC(=O)NC1C(OC(C)[C@@H](NC(=O)OCc2ccccc2)C(=O)OC(C)(C)C)OC(COC(C)=O)C(OC(C)=O)C1OC(C)=O (some centres undefined) ?
**A:** no

**Q:** What was the test verdict on "C=C[C@@H]1OC(=O)O[C@H]1CO" ?
**A:** no

**Q:** What is the recorded call for this compound in the test? Cc1cc(C)c2c(c1)CC1(Cc3c(C)ccc(C)c3C1=O)C2=O (centres undefined)
**A:** no

**Q:** Called result for "COc1cccc([C@@H]2C/C(=N\NC(=O)C(=O)N[C@@H](C)c3ccccc3)c3ccccc3N2)c1"
**A:** no

**Q:** Could you please tell me the result logged for "CNC(=S)N/N=C(/C)CCC/C(C)=N/NC(=S)NC" in this assay?
**A:** no

**Q:** What was the test verdict on "O=[N+]([O-])C1(C2([N+](=O)[O-])CCCC2)CCCC1" ?
**A:** no

**Q:** Field: outcome | Entry: CCS(CC)(CC)CC1CCCC2=CCC(P(=O)(c3ccccc3)c3ccccc3)CC21 (centres undefined)
**A:** no

**Q:** Recorded test outcome, item CCN(CC)CCCC(C)Nc1ccnc2cc3ccccc3cc12 (centres undefined)
**A:** no

**Q:** Recorded test outcome, item CCOC(=O)C1CC/C(=C(/C#N)C(=O)OC)N1 (centres undefined)
**A:** no

**Q:** Test call, this compound: "COC(=O)c1cc2c3c(c(C(C)=O)c(OC)c2[nH]1)NCC3"
**A:** no

**Q:** Assay outcome for "O=c1[nH]/c(=C/c2ccc(OCc3ccccc3)cn2)c(=O)[nH]/c1=C/c1ccccc1" : what was it?
**A:** yes

**Q:** Hi, do you know how NC(=O)C(=O)C1CCC2=C(Sc3ccccc3N2)C1=O (centres undefined) came out in this test?
**A:** no

**Q:** Each compound tested received a call. Report the one for C=C1CC2C[C@H](OS(=O)(=O)c3ccc(C)cc3)C(C1)N2C (some centres undefined) .
**A:** no
